ASSAY_SYSTEM: human V1a receptor (Homo sapiens (Human), UniProt P37288)
Sequence (P37288 whole entry): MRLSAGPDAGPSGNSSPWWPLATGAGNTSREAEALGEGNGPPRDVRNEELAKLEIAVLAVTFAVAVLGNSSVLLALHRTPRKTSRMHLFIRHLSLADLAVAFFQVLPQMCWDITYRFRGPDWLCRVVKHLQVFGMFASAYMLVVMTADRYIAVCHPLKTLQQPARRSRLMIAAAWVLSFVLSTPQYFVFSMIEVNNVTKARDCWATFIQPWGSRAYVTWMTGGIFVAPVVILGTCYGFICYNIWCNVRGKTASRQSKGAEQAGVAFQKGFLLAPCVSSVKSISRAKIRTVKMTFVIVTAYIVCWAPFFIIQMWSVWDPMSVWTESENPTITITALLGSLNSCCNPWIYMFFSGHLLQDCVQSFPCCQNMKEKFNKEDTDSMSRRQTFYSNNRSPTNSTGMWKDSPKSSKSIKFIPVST
EXPERIMENTAL_DETAILS: Cellular in vitro assay for determining vasopressin receptor activity (V1a, aequorin luminescence)
Type: cell-based
DETAILS: selectivity, IC50 hV2 divided by IC50 hV1a
ASSAY_METRIC: ratio IC50 hV2/hV1a

O=C(CC(F)(F)F)NC(Cn1c(-c2ccc(Cl)cc2)nn(Cc2ncn(-c3ncccc3Cl)n2)c1=O)C(F)(F)F (racemic) ... 37.9
CC(C)(C)OC(=O)N1CCC1C(=O)NC(Cn1c(-c2ccc(Cl)cc2)nn(Cc2ncn(-c3ncccc3Cl)n2)c1=O)C(F)(F)F (stereo not drawn) ... 126.8
O=C(NC(Cn1c(-c2ccc(Cl)cc2)nn(Cc2ncn(-c3ncccc3Cl)n2)c1=O)C(F)(F)F)C1CC1(F)F (stereo not drawn) ... 78.8
